I'd be grateful if you could share measured pIC50 for these entries.
assay: In vitro binding affinity towards FKBP12 domain of peptidyl-propyl isomerase (PPIase)
In plain terms, pIC50 is the concentration in mol/L turned into minus its base-10 logarithm.

Data request, read-out pIC50, for CCC(C)(C)C(=O)C(=O)N1C2CCC(C2)[C@H]1C(=O)OCCCCc1ccccc1 (stereo partly specified)
6.15

Another compound: O=C(SCCCc1ccccc1)[C@@H]1C2CCC(C2)N1S(=O)(=O)c1ccccc1 (stereo partly specified)
6.04

Another compound: CCC(C)(C)C(=O)C(=O)N1C2CCC(C2)[C@H]1C(=O)OCCCc1ccccc1 (stereo partly specified)
6.17

Another compound: "COc1cc(C(=O)C(=O)N2C3CCCC2C(=O)OCCCCOC3=O)cc(OC)c1OC"
9.55

Another compound: O=C(SCCCc1ccccc1)[C@@H]1C2CCC(C2)N1S(=O)(=O)Cc1ccccc1 (stereo partly specified)
6.14

Another compound: CCC(C)(C)C(=O)C(=O)N1C2CCC(C2)[C@H]1C(=O)SCCC(c1ccccc1)c1ccccc1 (stereo partly specified)
6.01

Another compound: CCC(C)(C)C(=O)C(=O)N1C2CCC(C2)[C@H]1C(=O)SCCCc1ccccc1 (stereo partly specified)
5.64

Another compound: O=C1CC2CCCC(Sc3ccccc3)(C1)C2 (stereo unspecified)
8.04

Another compound: O=C(OCCCc1ccccc1)[C@@H]1C2CCC(C2)N1S(=O)(=O)c1ccccc1 (stereo partly specified)
6.19

Another compound: CCC(C)(C)C(=O)C(=O)N1C2CCC(C2)[C@H]1C(=O)OCCCc1ccncc1 (stereo partly specified)
4.82

Another compound: CCC(C)(C)C(=O)C(=O)N1C2CCC(C2)[C@@H]1C(=O)OCCCCc1ccccc1 (stereo partly specified)
5.29

Another compound: O=C(OCCCc1ccccc1)[C@@H]1C2CCC(C2)N1S(=O)(=O)Cc1ccccc1 (stereo partly specified)
5.89

Another compound: CCC(C)(C)C(=O)C(=O)N1C2CCC(C2)[C@@H]1C(=O)SCCCc1ccccc1 (stereo partly specified)
4.66

---

I'd be grateful if you could share measured IC50 for these entries.
assay: In vitro binding affinity towards FKBP12 domain of peptidyl-propyl isomerase (PPIase)

Data request, read-out IC50, for CCC(C)(C)C(=O)C(=O)N1C2CCC(C2)[C@@H]1C(=O)OCCCc1ccncc1 (stereo partly drawn)
> 25 µM

Another compound: CCC(C)(C)C(=O)C(=O)N1C2CCC(C2)[C@@H]1C(=O)SCCC(c1ccccc1)c1ccccc1 (stereo partly drawn)
> 25 µM

Another compound: CCC(C)(C)C(=O)C(=O)N1C2CCC(C2)[C@@H]1C(=O)OCCCc1ccccc1 (stereo partly drawn)
> 25 µM
